// data source = PubChem BioAssay (NCI)

# System: LOX IMVI melanoma
# Assay procedure: NCI-60 one-dose screen, 48 h
# Assay setup: 10 µM
The panel holds about 83,000 compounds, 20% with a hit somewhere; the sample as a whole holds those more often. Active and inactive are the calls of the source. The calls were made as follows: active = growth percent below 10; inactive = the rest.
Please reply with one of these outcomes: active, inactive

See these solved cases before continuing.
Molecule	System under test	Category
O=C(CSc1nnc(-c2ccc3nc(-c4ccccc4)[nH]c3c2)o1)Nc1ccc(Cl)cc1	LOX IMVI melanoma	active
O=C(Nc1ccc(OCC(=O)c2ccccc2)cc1)Nc1ccc(Cl)c(C(F)(F)F)c1	LOX IMVI melanoma	active
COc1ccccc1[C@H]1C(C(=O)c2ccc(O)cc2)C2(N[C@@H]1c1ccccc1)C(=O)Nc1ccc(Br)cc12 (some centres not stated)	LOX IMVI melanoma	active
O=C1CCC(N2Cc3c(C#CCCCNC(=O)c4ccc(NC(=O)[C@@H]5NC6(CCCCC6)[C@@]6(C(=O)Nc7cc(Cl)ccc76)[C@H]5c5cccc(Cl)c5F)cc4)cccc3C2=O)C(=O)N1 (some centres not stated)	LOX IMVI melanoma	inactive
CC(C)NC(=O)c1cc(-c2ccc(NC(=O)Nc3ccc(N4CCN(C)CC4)c(C(F)(F)F)c3)cc2)nc2cccnc12	LOX IMVI melanoma	active
O=C(CS(=O)(=O)c1oc(-c2ccc(Cl)cc2)nc1S(=O)(=O)c1ccc(Cl)cc1)N1CCOCC1	LOX IMVI melanoma	active

What was the test verdict on COc1ccc(/C=C/C(=O)c2ccc(NC(=O)CN3C(=O)NC(C)(c4ccccc4)C3=O)cc2)cc1 (configuration not stated) ?
inactive

What was the test verdict on `CC1(C)CC[C@]2(C(=O)O)CC[C@]3(C)C(=CC[C@@H]4[C@@]5(C)C/C(=C/c6ccncc6)[C@H](O)C(C)(C)[C@@H]5CC[C@]43C)[C@@H]2C1` ?
inactive

What was the test verdict on `O=C(c1ccccc1)n1ccc(-c2cc3cc(Br)ccc3oc2=O)n1` ?
active

What was the test verdict on `CCCCCCCCCCCCCCCCCCCC(=O)NCCc1c[nH]c2ccc(O)cc12` ?
inactive

What was the test verdict on `CN(C(=O)c1ccc(C(F)(F)F)cc1C(F)(F)F)c1sc2c(c1C#N)CCC(=O)C2` ?
inactive

What was the test verdict on `CC(C)(C)Nc1nc2cc(Cl)c(Cl)cc2nc1S(C)(=O)=O` ?
active

What was the test verdict on `CC1=C2C(=C[C@@](C)(CO)[C@@H]2O)/C(=N\N)[C@](C)(O)C12CC2` ?
active

====

# Test system: UO-31 renal
# Assay procedure: NCI-60 one-dose screen, 48 h
# Assay setup: 10 µM
# Method: Growth inhibition of the UO-31 human tumor cell line is measured as a screen for anti-cancer activity. Cells are grown in 96 well plates and exposed to the test compound for 48 hours. Compounds are tested at a single concentration, which is 10^-5 M for most compounds. The reported endpoint is percent growth (GI% or GIPRCNT), where numbers from 0 - 100% represent growth inhibition, and numbers from -100% - 0 represent cell death. For example, a value of 40 represents 60% growth inhibition. […]
About 83,000 compounds went through this panel and 20% of them were active in at least one assay; those are over-represented in the sample as a whole. Calls of active or inactive are those of the source. Rule for the calls: active = growth percent below 10; inactive = the rest.
Please reply with one of these outcomes: true (1) (active), false (0) (inactive)

> print(dat)
                                    compound   category
 1  Cc1ccc(F)cc1N/C=c1\s/c(=C(\C#N)C(=O)Nc2ccccc2)n(-c2ccccc2)c1=O  false (0)
 2  C=CC(=O)Nc1ccc(C(=O)/C=C/c2ccc(N(C)CCF)cc2)c(O)c1   true (1)
 3  O=C(CSc1nnc(-c2ccc3nc(-c4ccccc4)[nH]c3c2)o1)Nc1ccc(Br)cc1  false (0)
 4  CN1C(=O)N(C)C2SC(N/N=C/c3cccs3)=NC21 (centres undefined)  false (0)
 5  c1ccc(C(=C(c2ccc(OCCN3CCCCC3)cc2)c2ccc(OCCN3CCCCC3)cc2)C2CCCC2)cc1  false (0)
 6  CC(=O)Nc1ccc(-c2cn(-c3cccc(C(=O)Nc4ccc(F)c(C(F)(F)F)c4)c3)nn2)cn1  false (0)
 7  CN(C(=O)c1ccc(C(C)(C)C)cc1)c1sc2c(c1C#N)CCC(=O)C2   true (1)
 8  COc1ccc(N2N=C(c3ccc4c(c3)OCCO4)CC2c2cccc(NC(=O)CCCNS(=O)(=O)c3ccc(F)cc3)c2)cc1 (centres undefined)  false (0)
 9  CN1CCN(c2ccc(C(=O)/C=C/c3ccc(OC(F)F)cc3)cc2)CC1  false (0)
10  CN1CCCN(Cc2ccc(C(=O)Nc3cccc(Nc4ccc5cc(O)ccc5n4)c3)cc2C(F)(F)F)CC1  false (0)

What was the test verdict on `O=c1oc2ccc(-c3ccc(F)cc3F)cc2c(=O)n1-c1ccc(F)c(Cl)c1` ?
true (1)

What was the test verdict on `CC1=C2C(=C[C@@](C)(CO)[C@@H]2O)/C(=N\N)[C@](C)(O)C12CC2` ?
true (1)

What was the test verdict on OCc1[nH]nc2cc(Nc3ncc4ccc(Br)c(OC5CCC(O)CC5)c4n3)ccc12 (centres undefined) ?
true (1)

What was the test verdict on `Nc1nc(Nc2ccc(Cl)cc2)n(Cc2cccc(Br)c2)n1` ?
true (1)

What was the test verdict on `Cc1cc(=O)oc2cc(OCCCCOc3ccc(/C=C/C(=O)Nc4ccc(F)c(Cl)c4)cc3)ccc12` ?
false (0)

What was the test verdict on `C/C(=N\N=C\c1ccc(N(C)C)cc1)c1ccc2c(c1)Nc1ccccc1S2` ?
false (0)

What was the test verdict on `CC1(C)CC[C@]2(C(=O)Nc3ccccc3)CC[C@]3(C)C(=CC[C@@H]4[C@@]5(C)CC[C@H](N)C(C)(C)[C@@H]5CC[C@]43C)[C@H]2C1` ?
false (0)

====

# Tested on: COLO 205 colon
# Assay procedure: NCI-60 one-dose screen, 48 h (100 = growth as untreated, 0 = no growth, -100 = all killed)
# Assay setup: 10 µM
The panel holds about 83,000 compounds, 20% with a hit somewhere; the sample as a whole holds those more often. Active and inactive are the calls of the source. The calls were made as follows: active = growth percent below 10; inactive = the rest.
Assign growth to each entry below.

Quick batch: growth for everything below.
1. CN(C)c1ccc(/C=C/c2nc3ccccc3c(=O)n2CC(=O)Nc2ccccc2)cc1
2. O=C(c1ccccc1)n1ccc(-c2cc3cc(Br)ccc3oc2=O)n1
3. O=c1nc(-c2ccccc2)cc(-c2cc3ccccc3nc2Cl)[nH]1

["69.6% (inactive)", "11% (inactive)", "45% (inactive)"]

Quick batch: growth for everything below.
1. Nc1nc(Nc2ccc(Cl)cc2)nn1Cc1cccc(Br)c1
2. CCOC(=O)C(Cc1ccccc1)N1C(=O)/C(=C/N2N=C(c3ccc(OC)cc3)CC2c2ccc3ccccc3c2)SC1=S (stereo not drawn)
3. N#Cc1c(NC(=O)c2ccc(C(F)(F)F)cc2C(F)(F)F)sc2c1CCC(=O)C2
4. OCc1[nH]nc2cc(Nc3ncc4ccc(Br)c(OC5CCC(O)CC5)c4n3)ccc12 (stereo not drawn)
5. O=C(c1ccc(Cl)cc1)C1[C@H](c2ccc(Br)cc2)[C@@H](c2ccccc2)NC12C(=O)Nc1ccc(Br)cc12 (stereo partly drawn)
6. Cc1cc(C)nc(/N=C(\N)Nc2ccc(S(=O)(=O)Nc3nc(C)cc(C)n3)cc2)n1

1. 24.7% (inactive)
2. -86% (active)
3. -73.3% (active)
4. -76.9% (active)
5. -88.2% (active)
6. 120% (inactive)

Quick batch: growth for everything below.
1. COc1cc2c3c(n(CCCn4ccnc4)c(=O)c2cc1OC)-c1nc2c(cc1C3=O)OCO2
2. C/C(=C\c1ccc(O)cc1O)c1ccc2ccc(O)cc2[o+]1
3. O=c1[nH]c2ccc(Cl)cc2cc1CSc1ccc(Nc2nccc(-c3ccc(Cl)cc3)n2)cc1

34.2% (inactive)
116% (inactive)
4.59% (active)

# value of growth, COLO 205 colon, item `CCN1CCN(Cc2ccc(NC(=O)c3cccc(-n4cc(-c5ccc(NC(C)=O)nc5)nn4)c3)cc2C(F)(F)F)CC1` = 57.3% (inactive)

====

# Test system: SW-620 colon
# Assay procedure: NCI-60 one-dose screen, 48 h (100 = growth as untreated, 0 = no growth, -100 = all killed)
# Assay setup: 10 µM
This is part of a sample that, as a whole, favours compounds with a hit. Of some 83,000 tested, about 20% had one in any assay.
Observed property: growth (%)
Numbers only, in %.

Field: example entries. Status: answers known.
> print(dat)
                                   molecule  value.observed
1  Cc1ccc(/C(CSc2nnc(-c3c[nH]c4ccccc34)n2-c2ccccc2)=N/O)cc1           -80.4
2  COc1ccc(C(=O)CSc2nnc(-c3c[nH]c4ccccc34)n2-c2ccccc2)cc1            86.3
3  CN1CCN(c2ccc(Nc3nc(NCCCNC(=O)c4ccc(F)cc4)c4sccc4n3)cc2)CC1            58.3
4               CN1C(=O)/C(=C/c2nccs2)SC1=S            92.5
5  CN1CCN(c2ccc(Nc3nc(NCCCNC(=O)c4ccc(Cl)cc4)c4sccc4n3)cc2)CC1              93

Quick batch: growth for everything below.
1. COc1ccsc1/C=N/NC(=O)c1[nH]c2ccc(Br)cc2c1-c1ccccc1
2. COc1ccc(N2N=C(c3ccc4c(c3)OCCO4)CC2c2cccc(NC(=O)CCCNS(=O)(=O)c3ccc(F)cc3)c2)cc1 (stereo not drawn)
3. CC(=C(c1ccc(OCCN2CCCCCC2)cc1)c1ccc(OCCN2CCCCCC2)cc1)c1ccc(Cl)cc1
4. CSc1nc(-c2cccc(C)c2)c2cc(-c3ccccc3)n(C)c2n1
5. O=C(CSc1nnc(-c2c[nH]c3ccccc23)n1-c1ccccc1)c1ccc(Br)cc1
6. NC1=NC(c2ccccc2Cl)N=C(Nc2nn[nH]n2)N1 (stereo not drawn)
7. Cn1cc(/C=N/Nc2cccc(Cl)n2)c2ccccc21
8. Cc1ccn2c(C(=O)c3ccccc3)cc(-c3cc(-c4ccc(N(C)C)cc4)c(C#N)c(N)n3)c2c1

1. 18.4
2. 95.2
3. -61.1
4. 20.3
5. 79.8
6. 106
7. 65.9
8. 69.7
